Study System: DLG2_3, Q15700
Test Method Notes: holdup assay
Design: key: below the threshold = too weak to quantify, mostly under pKd 3.1 to 4
Experimental Conditions: plain residues with an end cap or a label only (N-terminal biotin on a linker: ado-ado)
Note to self: values exactly at 4 are Fulfilled. So pKd at or above 4 is Fulfilled, below is Not fulfilled.

- Binder: "PYSESDDDWC [CACNA1A, O00555]"
  Qualitative Label: "Not fulfilled"
- Binder: "EDGESWEYQI [TRPV6, Q9H1D0]"
  Qualitative Label: "Not fulfilled"
- Binder: "AEASVACSLC [PTGIR, P43119]"
  Qualitative Label: "Not fulfilled"
- Binder: "AQRARSPSDV [GPR12, P47775]"
  Qualitative Label: "Not fulfilled"
- Binder: "TISFTQTSQF [SLC1A1, P43005]"
  Qualitative Label: "Not fulfilled"
- Binder: "VKRNSKETVV [MARCHF3, Q86UD3]"
  Qualitative Label: "Fulfilled"
